Can you tell me OD 490/630 nm for the items I'm about to list?
Target: T1, Ala mutant having 3-amino acid substitution, SEQ ID NO: 47
T1 peptide: EENMDDQWMAAAMEIGY
Assay: ELISA, coated peptide
Answers are plain numbers.

Would you mind listing OD 490/630 nm for each of the following binders?
1. H7 (antibody, V domains shown, Chicken variable regions in a mouse chimeric antibody (IgG1); also called anti-PAD4 antibody H7) VH: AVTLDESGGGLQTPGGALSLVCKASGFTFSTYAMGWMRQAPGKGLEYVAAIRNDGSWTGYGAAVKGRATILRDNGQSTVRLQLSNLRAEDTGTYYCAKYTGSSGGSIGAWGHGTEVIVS VL: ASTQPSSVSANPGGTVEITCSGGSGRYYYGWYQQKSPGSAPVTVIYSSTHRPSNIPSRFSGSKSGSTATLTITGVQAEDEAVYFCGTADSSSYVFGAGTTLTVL
2. E9 (antibody, V domains shown, Chicken variable regions in a mouse chimeric antibody (IgG1); also called anti-PAD4 antibody E9) VH: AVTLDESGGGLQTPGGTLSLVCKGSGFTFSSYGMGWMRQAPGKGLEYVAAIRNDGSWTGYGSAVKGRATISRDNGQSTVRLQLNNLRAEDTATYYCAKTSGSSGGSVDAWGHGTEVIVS VL: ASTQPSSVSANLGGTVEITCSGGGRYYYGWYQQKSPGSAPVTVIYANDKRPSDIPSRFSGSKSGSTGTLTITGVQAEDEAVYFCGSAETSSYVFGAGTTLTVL
3. G9 (antibody, V domains shown, Chicken variable regions in a mouse chimeric antibody (IgG1); also called anti-PAD4 antibody G9) VH: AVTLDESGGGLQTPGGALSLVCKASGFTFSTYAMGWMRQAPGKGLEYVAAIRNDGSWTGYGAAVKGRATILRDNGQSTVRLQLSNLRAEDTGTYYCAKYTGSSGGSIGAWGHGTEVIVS VL: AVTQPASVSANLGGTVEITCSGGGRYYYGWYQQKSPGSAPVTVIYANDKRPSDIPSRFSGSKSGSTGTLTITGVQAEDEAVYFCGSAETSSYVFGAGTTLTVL

1.67
1.34
1.85
